# SYSTEM: T1, cMet-Fc fusion protein (extracellular domain of the cMet receptor expressed as an Fc-fusion protein) (human, UniProt P08581 25-932)
# T1 construct: extracellular domain; also called soluble cMet-Fc-fusion protein; soluble cMet receptor; not shown: Fc part
# T1 sequence (P08581 25-932): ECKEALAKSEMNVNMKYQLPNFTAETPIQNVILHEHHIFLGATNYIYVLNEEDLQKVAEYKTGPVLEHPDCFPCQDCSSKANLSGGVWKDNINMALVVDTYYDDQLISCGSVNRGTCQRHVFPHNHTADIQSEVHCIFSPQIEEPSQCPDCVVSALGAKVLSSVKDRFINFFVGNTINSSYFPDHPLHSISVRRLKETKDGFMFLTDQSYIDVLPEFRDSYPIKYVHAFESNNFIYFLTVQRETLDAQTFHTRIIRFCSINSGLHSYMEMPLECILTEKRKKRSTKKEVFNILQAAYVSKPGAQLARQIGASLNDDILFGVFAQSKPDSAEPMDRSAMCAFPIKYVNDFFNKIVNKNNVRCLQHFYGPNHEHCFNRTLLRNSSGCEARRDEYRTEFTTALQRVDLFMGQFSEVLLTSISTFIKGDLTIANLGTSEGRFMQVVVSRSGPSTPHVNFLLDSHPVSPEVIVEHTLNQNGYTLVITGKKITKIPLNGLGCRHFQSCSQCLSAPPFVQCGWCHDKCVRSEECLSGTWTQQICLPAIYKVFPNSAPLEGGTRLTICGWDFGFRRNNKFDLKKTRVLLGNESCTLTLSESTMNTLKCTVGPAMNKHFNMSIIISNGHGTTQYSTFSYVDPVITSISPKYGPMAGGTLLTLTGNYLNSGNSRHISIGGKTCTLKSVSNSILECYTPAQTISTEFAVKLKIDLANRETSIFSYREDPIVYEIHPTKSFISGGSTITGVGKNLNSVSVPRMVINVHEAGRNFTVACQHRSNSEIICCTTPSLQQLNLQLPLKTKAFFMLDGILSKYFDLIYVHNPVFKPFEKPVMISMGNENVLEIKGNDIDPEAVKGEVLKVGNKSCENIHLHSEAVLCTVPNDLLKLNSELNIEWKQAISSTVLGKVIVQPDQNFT
# TEST_NAME: phage ELISA on cMet-Fc, competitor HGF 500 ng/mL
The label depends only on % of binding in the absence of HGF: 1 (yes) if it is at least 40%, 0 (no) if it is smaller.

>>> group_label("AGSIQCKGPPWFSCAMYGT [325-H05 peptide-displaying phage (SEQ ID NO: 048)]")
"0 (no)"
>>> group_label("AGYFECKGPPTFECWLSGT [333-H03 peptide-displaying phage (SEQ ID NO: 060)]")
"0 (no)"
>>> group_label("AGHWICVGPPTFSCQWHGT [330-G09 peptide-displaying phage (SEQ ID NO: 071)]")
"0 (no)"
>>> group_label("AGGNWCSFYEELCEWLGT [445-E04 peptide-displaying phage (SEQ ID NO: 043)]")
"1 (yes)"
>>> group_label("AGYYHCIDDFPQCKWMGT [482-D02 peptide-displaying phage (SEQ ID NO: 017)]")
"1 (yes)"
>>> group_label("AGYSVCKGYPSFECAFFGT [336-D07 peptide-displaying phage (SEQ ID NO: 075)]")
"0 (no)"
>>> group_label("AGWWSCQWELNVCIWQGT [484-D08 peptide-displaying phage (SEQ ID NO: 016)]")
"1 (yes)"

The values you see were collected from patent US20120039802A1.
